Let's look at some variants and their measured self-cleavage kobs at 2500 uM GlcN6P.
B1: glmS ribozyme (parent)
chain: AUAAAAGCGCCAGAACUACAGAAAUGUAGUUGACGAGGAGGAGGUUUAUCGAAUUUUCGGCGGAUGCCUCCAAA

Variants of: B1
Test: self-cleavage kobs at 2500 uM GlcN6P; higher = faster cleavage; RNA array
Conditions: with glucosamine-6-phosphate
Variants at the floor of the assay were thinned out.

{"var": "U30C U31A U45A", "inequality.symbol": "=", "self-cleavage kobs at 2500 uM GlcN6P, s⁻¹": 0.000661}
{"var": "G13C A52G C70G", "inequality.symbol": "=", "self-cleavage kobs at 2500 uM GlcN6P, s⁻¹": "7.21e-05"}
{"var": "G41C U46G", "inequality.symbol": "=", "self-cleavage kobs at 2500 uM GlcN6P, s⁻¹": "6.37e-05"}
{"var": "A6C A12C", "inequality.symbol": "=", "self-cleavage kobs at 2500 uM GlcN6P, s⁻¹": "2.86e-05"}
{"var": "G29C A53C C67U", "inequality.symbol": "=", "self-cleavage kobs at 2500 uM GlcN6P, s⁻¹": 0.000153}
{"var": "A39G G43U U54C", "inequality.symbol": "=", "self-cleavage kobs at 2500 uM GlcN6P, s⁻¹": "6.53e-05"}
{"var": "G44U G51C", "inequality.symbol": "<", "self-cleavage kobs at 2500 uM GlcN6P, s⁻¹": "1e-05"}
{"var": "G60U A64U", "inequality.symbol": "<", "self-cleavage kobs at 2500 uM GlcN6P, s⁻¹": "1e-05"}
{"var": "A12G C70G", "inequality.symbol": "=", "self-cleavage kobs at 2500 uM GlcN6P, s⁻¹": 0.000109}
{"var": "A12U C16A U46C", "inequality.symbol": "=", "self-cleavage kobs at 2500 uM GlcN6P, s⁻¹": 0.000144}
{"var": "A12G G63A", "inequality.symbol": "<", "self-cleavage kobs at 2500 uM GlcN6P, s⁻¹": "1e-05"}
{"var": "C11A C34U G60U C71A", "inequality.symbol": "<", "self-cleavage kobs at 2500 uM GlcN6P, s⁻¹": "1e-05"}
{"var": "U56C U57C", "inequality.symbol": "=", "self-cleavage kobs at 2500 uM GlcN6P, s⁻¹": "8.12e-05"}
{"var": "G7U A39G", "inequality.symbol": "<", "self-cleavage kobs at 2500 uM GlcN6P, s⁻¹": "1e-05"}
{"var": "G9C C10A G32A", "inequality.symbol": "<", "self-cleavage kobs at 2500 uM GlcN6P, s⁻¹": "1e-05"}
{"var": "C8A G35A G59A C70U", "inequality.symbol": "<", "self-cleavage kobs at 2500 uM GlcN6P, s⁻¹": "1e-05"}
{"var": "A6G A14U U45C", "inequality.symbol": "<", "self-cleavage kobs at 2500 uM GlcN6P, s⁻¹": "1e-05"}
{"var": "C8U U54A C58G", "inequality.symbol": "<", "self-cleavage kobs at 2500 uM GlcN6P, s⁻¹": "1e-05"}
{"var": "C10G G32U A36C G40U G63U", "inequality.symbol": "<", "self-cleavage kobs at 2500 uM GlcN6P, s⁻¹": "1e-05"}
{"var": "A6U C67A", "inequality.symbol": "=", "self-cleavage kobs at 2500 uM GlcN6P, s⁻¹": "5.62e-05"}
{"var": "C8A A12U C16G G41A C68A", "inequality.symbol": "<", "self-cleavage kobs at 2500 uM GlcN6P, s⁻¹": "1e-05"}
{"var": "U30A U46G C68G", "inequality.symbol": "=", "self-cleavage kobs at 2500 uM GlcN6P, s⁻¹": 0.000143}
